Measured values drawn from patent US8063060B2 for this set.

# Target Or System: dopamine D2 receptor (Rattus norvegicus, UniProt P61169)
# Sequence (P61169 1-415 isoform P61169-2): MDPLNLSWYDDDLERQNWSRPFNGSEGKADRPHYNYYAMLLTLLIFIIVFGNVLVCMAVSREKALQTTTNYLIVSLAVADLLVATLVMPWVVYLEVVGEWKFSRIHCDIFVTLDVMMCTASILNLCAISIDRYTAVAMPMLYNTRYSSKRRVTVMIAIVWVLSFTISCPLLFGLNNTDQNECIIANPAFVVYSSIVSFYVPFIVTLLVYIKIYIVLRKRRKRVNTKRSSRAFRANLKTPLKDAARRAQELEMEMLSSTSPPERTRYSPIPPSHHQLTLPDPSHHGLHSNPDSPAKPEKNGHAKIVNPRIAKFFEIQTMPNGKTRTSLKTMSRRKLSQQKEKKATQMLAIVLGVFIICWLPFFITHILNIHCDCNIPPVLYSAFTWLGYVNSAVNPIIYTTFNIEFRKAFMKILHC
# Assay Method Text: Radioligand competition assay, D2 receptor, rat corpus striatum membranes, [3H]nemonapride
# Type: binding

{"columns": ["Compound", "Ki [nM]"],
 "data": [
  ["CCN1CCc2cccc3c2[C@H]1Cc1cccc(O)c1-3 [Compound 14, R(−)—N-ethyl-11-hydroxynoraporphine]", 88],
  ["Oc1cccc2c1-c1cccc3c1[C@@H](C2)N(CC1CC1)CC3", 96.3],
  ["CN1CCc2cc(O)cc3c2[C@H]1Cc1cccc(O)c1-3 [Compound 24, R(−)-2,11-dihydroxyaporphine]", 86],
  ["C=CCN1CCc2cccc3c2[C@H]1Cc1cccc(O)c1-3 [Compound 5, R(−)-N-allyl-11-hydroxynoraporphine]", 41.1]
]}
